- TARGET OR SYSTEM: human melanocortin receptor-4 (human, UniProt P32245 1-332)
- Sequence (P32245 whole entry): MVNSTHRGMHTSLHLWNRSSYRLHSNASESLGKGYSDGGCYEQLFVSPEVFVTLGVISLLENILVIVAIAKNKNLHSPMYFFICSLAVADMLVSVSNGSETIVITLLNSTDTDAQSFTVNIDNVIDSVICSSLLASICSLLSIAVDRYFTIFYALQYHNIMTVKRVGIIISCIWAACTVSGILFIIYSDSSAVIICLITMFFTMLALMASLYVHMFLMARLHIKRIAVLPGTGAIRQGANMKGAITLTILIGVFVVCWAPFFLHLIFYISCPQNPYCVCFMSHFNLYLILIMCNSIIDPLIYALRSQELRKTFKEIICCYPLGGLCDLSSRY
- TEST SUMMARY: cell-based or functional assay
Positions of bridges follow the written chain, without caps; N, C: chain ends. Non-standard residues stand in square brackets, D forms with d. 2Nal = N[C@@H](Cc1ccc2ccccc2c1)C(=O)O; Aad = N[C@@H](CCCC(=O)O)C(=O)O; Orn = NCCC[C@H](N)C(=O)O; Dab = NCC[C@H](N)C(=O)O
MEASURED ENDPOINT: hMC4r EC50 (nM)

Solved cases below.
Ac-RKN[dF]R[2Nal]D-NH2 (lactam 2-7; SMILES CC(=O)N[C@@H](CCCNC(=N)N)C(=O)N[C@H]1CCCCNC(=O)C[C@@H](C(N)=O)NC(=O)[C@H](Cc2ccc3ccccc3c2)NC(=O)[C@H](CCCNC(=N)N)NC(=O)[C@@H](Cc2ccccc2)NC(=O)[C@H](CC(N)=O)NC1=O, also called Ac-Arg-cyclo(Lys-Asn-D-Phe-Arg-Nal2-Asp)-NH2) [Peptide No. 162] ... 0.85
Ac-R[Aad]N[dF]RW[Dab]-NH2 (lactam 2-7, also called Ac-Arg-cyclo(hGlu-Asn-D-Phe-Arg-Trp-Dab)-NH2) [Peptide No. 160] ... 0.245

(1) Ac-REN[dF]RW[Orn]-NH2 (lactam 2-7, also called Ac-Arg-cyclo(Glu-Asn-D-Phe-Arg-Trp-Orn)-NH2) [Peptide No. 161]
(2) Ac-RKN[dF]RWD-NH2 (lactam 2-7, also called Ac-Arg-cyclo(Lys-Asn-D-Phe-Arg-Trp-Asp)-NH2) [Peptide No. 155]
(3) RXQFRWX (N-terminal Ac; Dab 2 (X); D-Phe 4; hGlu 7 (X); cyclo(Dab 2-hGlu 7); C-terminal NH2, also called Ac-Arg-cyclo(Dab-Gln-D-Phe-Arg-Trp-hGlu)-NH2) [Peptide No. 159]
Query :: Order each entry by recorded hMC4r EC50, climbing from the minimum. Dear reader, please state the labels in the requested order.
Result :: 2, 1, 3
(2: 0.189 nM, 1: 0.413 nM, 3: 0.825 nM)
